STUDY_TARGET: 11β-hsd-1 enzyme (Homo sapiens)
Sequence (P28845 whole entry, species assumed): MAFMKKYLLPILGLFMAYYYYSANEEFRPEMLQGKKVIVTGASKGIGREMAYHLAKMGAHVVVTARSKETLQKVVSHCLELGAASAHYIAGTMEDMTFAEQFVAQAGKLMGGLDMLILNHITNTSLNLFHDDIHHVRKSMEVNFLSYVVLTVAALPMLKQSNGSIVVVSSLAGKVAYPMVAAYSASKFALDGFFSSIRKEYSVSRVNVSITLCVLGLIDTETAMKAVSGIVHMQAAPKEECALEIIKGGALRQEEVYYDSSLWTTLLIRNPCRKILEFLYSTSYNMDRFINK
ASSAY_PROTOCOL: 11β-hsd-1 enzyme assay, percentage of inhibition (3H-cortisone to cortisol, radio-HPLC)
Format: biochemical
STATED_CONDITIONS: compound at 0.1 uM; read-out: % inh @ 0.1 uM
Kindly supply the reported inhibition at 0.1 µM values for the records listed here.
// unit must come after the numeric part

Report its inhibition at 0.1 µM with 11β-hsd-1 enzyme (Homo sapiens) as the test system: O=S(=O)(Nc1ccc2ccccc2n1)N1CCC(c2ccccn2)CC1 [Example 316]
67.4%

Report its inhibition at 0.1 µM with 11β-hsd-1 enzyme (Homo sapiens) as the test system: Cc1cccc(NS(=O)(=O)c2ccc(-c3cccc(Cl)c3Cl)c(C)c2)n1 [Example 237]
58%

Report its inhibition at 0.1 µM with 11β-hsd-1 enzyme (Homo sapiens) as the test system: CCc1ccccc1-c1ccc(S(=O)(=O)Nc2cccc(C)n2)c(C)c1 [Example 201]
75%

Report its inhibition at 0.1 µM with 11β-hsd-1 enzyme (Homo sapiens) as the test system: Cc1cccc(NS(=O)(=O)c2ccc(-c3ccc(S(C)(=O)=O)cc3)c(C)c2)n1 [Example 234]
57%

Report its inhibition at 0.1 µM with 11β-hsd-1 enzyme (Homo sapiens) as the test system: Cc1cccc(NS(=O)(=O)c2ccc(-c3ccc(S(C)(=O)=O)cc3)cc2C)n1 [Example 200]
88%

Report its inhibition at 0.1 µM with 11β-hsd-1 enzyme (Homo sapiens) as the test system: Cc1cccc(NS(=O)(=O)c2ccc(-c3ccc(C#N)cc3)c(F)c2)n1 [Example 284]
100%

Report its inhibition at 0.1 µM with 11β-hsd-1 enzyme (Homo sapiens) as the test system: Cc1cccc(NS(=O)(=O)c2ccc(-c3cnco3)cc2)n1 [Example 264]
39.7%

Report its inhibition at 0.1 µM with 11β-hsd-1 enzyme (Homo sapiens) as the test system: Cc1cccc(NS(=O)(=O)c2ccc(-c3ccc(C(F)(F)F)cn3)cc2)n1 [Example 271]
87.7%

Report its inhibition at 0.1 µM with 11β-hsd-1 enzyme (Homo sapiens) as the test system: Cc1cccc(NS(=O)(=O)c2ccc(-c3ccc4c(c3)OCCO4)c(C)c2)n1 [Example 245]
62%

Report its inhibition at 0.1 µM with 11β-hsd-1 enzyme (Homo sapiens) as the test system: O=S(=O)(Nc1ccc2ccccc2n1)c1ccc(-c2ccccn2)cc1 [Example 287]
67.1%

Report its inhibition at 0.1 µM with 11β-hsd-1 enzyme (Homo sapiens) as the test system: CCc1cccc(NS(=O)(=O)N2CCc3ccccc3C2)n1 [Example 303]
89.3%

Report its inhibition at 0.1 µM with 11β-hsd-1 enzyme (Homo sapiens) as the test system: Cc1cccc(NS(=O)(=O)c2ccc(-c3ccc(F)cc3)c(C)c2)n1 [Example 280]
91%

Report its inhibition at 0.1 µM with 11β-hsd-1 enzyme (Homo sapiens) as the test system: COc1ccc(-c2ccc(S(=O)(=O)Nc3cccc(C)n3)c(C)c2)cc1C [Example 205]
86%

Report its inhibition at 0.1 µM with 11β-hsd-1 enzyme (Homo sapiens) as the test system: Cc1cccc(N(CCO)S(=O)(=O)c2ccc(-c3ccc(C#N)cc3)cc2)n1 [Example 266]
9.6%

Report its inhibition at 0.1 µM with 11β-hsd-1 enzyme (Homo sapiens) as the test system: Cc1cccc(NS(=O)(=O)c2ccc(-c3ccc(C#N)cc3)cc2O)n1 [Example 286]
100%

Report its inhibition at 0.1 µM with 11β-hsd-1 enzyme (Homo sapiens) as the test system: Cc1cccc(NS(=O)(=O)c2ccc(-c3cccc(F)c3F)cc2C)n1 [Example 198]
100%

Report its inhibition at 0.1 µM with 11β-hsd-1 enzyme (Homo sapiens) as the test system: N#Cc1ccc(C2CCN(S(=O)(=O)Nc3ccc4ccccc4n3)CC2)cc1 [Example 308]
95.7%

Report its inhibition at 0.1 µM with 11β-hsd-1 enzyme (Homo sapiens) as the test system: COc1cc(S(=O)(=O)Nc2cccc(C)n2)ccc1-c1ccc(C#N)cc1 [Example 258]
100%
